B1: HDV Ribozyme (parent)
chain: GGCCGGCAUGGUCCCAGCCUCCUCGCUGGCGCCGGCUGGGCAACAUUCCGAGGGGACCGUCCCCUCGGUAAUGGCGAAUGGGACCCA

variants of: B1; assay: self-cleavage, relative activity (ratio to wild type); higher = more cleavage; co-transcriptional
In this section, each of the variants is paired with its reported self-cleavage.
Readout Type: self-cleavage

>  <Variant Annotation>
A70G G81U

>  <Readout Type>
self-cleavage

>  <Endpoint Value>
0.0978

$$$$
>  <Variant Annotation>
A16C A77U

>  <Readout Type>
self-cleavage

>  <Endpoint Value>
0.199

$$$$
>  <Variant Annotation>
C22G G50U

>  <Readout Type>
self-cleavage

>  <Endpoint Value>
0.0297

$$$$
>  <Variant Annotation>
A71G U79A

>  <Readout Type>
self-cleavage

>  <Endpoint Value>
0.997

$$$$
>  <Variant Annotation>
C30G U46C

>  <Readout Type>
self-cleavage

>  <Endpoint Value>
0.0831

$$$$
>  <Variant Annotation>
G2A G59C

>  <Readout Type>
self-cleavage

>  <Endpoint Value>
0.244

$$$$
>  <Variant Annotation>
G11C U46C

>  <Readout Type>
self-cleavage

>  <Endpoint Value>
0.123

$$$$
>  <Variant Annotation>
C19A C61G

>  <Readout Type>
self-cleavage

>  <Endpoint Value>
0.095

$$$$
>  <Variant Annotation>
G6C G38U

>  <Readout Type>
self-cleavage

>  <Endpoint Value>
0.203

$$$$
>  <Variant Annotation>
G39A A78G

>  <Readout Type>
self-cleavage

>  <Endpoint Value>
0.131

$$$$
>  <Variant Annotation>
U37C A77U

>  <Readout Type>
self-cleavage

>  <Endpoint Value>
0.388

$$$$
>  <Variant Annotation>
C21G G59A

>  <Readout Type>
self-cleavage

>  <Endpoint Value>
0.0594

$$$$
>  <Variant Annotation>
U12G A43C

>  <Readout Type>
self-cleavage

>  <Endpoint Value>
0.431

$$$$
>  <Variant Annotation>
C7U G35A

>  <Readout Type>
self-cleavage

>  <Endpoint Value>
0.109

$$$$
>  <Variant Annotation>
U9G G82U

>  <Readout Type>
self-cleavage

>  <Endpoint Value>
0.767

$$$$
>  <Variant Annotation>
C3U U69A

>  <Readout Type>
self-cleavage

>  <Endpoint Value>
0.831

$$$$
>  <Variant Annotation>
G52A A56G

>  <Readout Type>
self-cleavage

>  <Endpoint Value>
0.801

$$$$
>  <Variant Annotation>
C26G C63A

>  <Readout Type>
self-cleavage

>  <Endpoint Value>
0.748

$$$$
>  <Variant Annotation>
C14A G34U

>  <Readout Type>
self-cleavage

>  <Endpoint Value>
0.101

$$$$
>  <Variant Annotation>
C19G C66A

>  <Readout Type>
self-cleavage

>  <Endpoint Value>
0.108

$$$$
>  <Variant Annotation>
G2U A43C

>  <Readout Type>
self-cleavage

>  <Endpoint Value>
0.0292

$$$$
>  <Variant Annotation>
G40U C66U

>  <Readout Type>
self-cleavage

>  <Endpoint Value>
0.753

$$$$
